B1: Chromodomain-helicase-DNA-binding protein 7, residues 2564 to 2605; numbered along this chain, Q9P2D1 (parent)
chain: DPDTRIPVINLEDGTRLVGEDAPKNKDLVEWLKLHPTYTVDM

Variants of: B1
methodSummary: abundance fitness (aPCA) (normalised: wild type 0, dead -1); higher = more abundant; growth selection in yeast, the domain comes from the species named
protocolConditions: Homo sapiens
Binary classification by abundance fitness, with -0.5 as an inclusive lower bound for True; all other cases are False.

>  <residueString>
DPDTRIPVINLEDGTRGVGEDAPKNKDLVEWLKLHPTYTVDM [L17G]

>  <assignedLabel>
True

$$$$
>  <residueString>
DPDTRIPVINLEDGTRLVGEDAPKNKDLVEWLKLHWTYTVDM [P36W]

>  <assignedLabel>
False

$$$$
>  <residueString>
DPDTRIPAINLEDGTRLVGEDAPKNKDLVEWLKLHPTYTVDM [V8A]

>  <assignedLabel>
False

$$$$
>  <residueString>
DPDTRIPVINLEDCTRLVGEDAPKNKDLVEWLKLHPTYTVDM [G14C]

>  <assignedLabel>
True

$$$$
>  <residueString>
DPDTRIPVINLEDGTRLVGEDAPKNKDLVEPLKLHPTYTVDM [W31P]

>  <assignedLabel>
True

$$$$
>  <residueString>
DPDTRIPVINLEDGTRLVGEDAPKNKDLVEWGKLHPTYTVDM [L32G]

>  <assignedLabel>
True

$$$$
>  <residueString>
DPDTRIPVINLEDGTRDVGEDAPKNKDLVEWLKLHPTYTVDM [L17D]

>  <assignedLabel>
True

$$$$
>  <residueString>
DPDTRIPVINLEDGTRLVGEDAPKNKDLVNWLKLHPTYTVDM [E30N]

>  <assignedLabel>
True

$$$$
>  <residueString>
DPDTRIPVINLEDGTRLVGEDAPKNKWLVEWLKLHPTYTVDM [D27W]

>  <assignedLabel>
False

$$$$
>  <residueString>
DPDTRIPVINLEDGTRLVGEDAPKIKDLVEWLKLHPTYTVDM [N25I]

>  <assignedLabel>
True

$$$$
>  <residueString>
DPDTRIPVIVLEDGTRLVGEDAPKNKDLVEWLKLHPTYTVDM [N10V]

>  <assignedLabel>
False

$$$$
>  <residueString>
DPDTRIPVINLEDGTRLVGEDAVKNKDLVEWLKLHPTYTVDM [P23V]

>  <assignedLabel>
False

$$$$
>  <residueString>
DPDTRIPVINLEDGTRLVGEDAPKNKDLVEWLKLHPTATVDM [Y38A]

>  <assignedLabel>
True

$$$$
>  <residueString>
YPDTRIPVINLEDGTRLVGEDAPKNKDLVEWLKLHPTYTVDM [D1Y]

>  <assignedLabel>
True

$$$$
>  <residueString>
DPQTRIPVINLEDGTRLVGEDAPKNKDLVEWLKLHPTYTVDM [D3Q]

>  <assignedLabel>
True

$$$$
>  <residueString>
DPDTRIPVINLEDGRRLVGEDAPKNKDLVEWLKLHPTYTVDM [T15R]

>  <assignedLabel>
True

$$$$
>  <residueString>
DPDTRIPVINLEDGTRLVGEDAPKNSDLVEWLKLHPTYTVDM [K26S]

>  <assignedLabel>
True

$$$$
>  <residueString>
DPDTRIPVINLEDGTRLVGEDAPKNKDLVEWLKLHPTYRVDM [T39R]

>  <assignedLabel>
True

$$$$
>  <residueString>
DPDTRIPVINLEDGTRLVGEDAPKNKVLVEWLKLHPTYTVDM [D27V]

>  <assignedLabel>
True

$$$$
>  <residueString>
DPDTRIGVINLEDGTRLVGEDAPKNKDLVEWLKLHPTYTVDM [P7G]

>  <assignedLabel>
True

$$$$
>  <residueString>
DPDTRIPVINLEDGTRLVGEDAPKNKHLVEWLKLHPTYTVDM [D27H]

>  <assignedLabel>
True

$$$$
>  <residueString>
DPDTRIPVIILEDGTRLVGEDAPKNKDLVEWLKLHPTYTVDM [N10I]

>  <assignedLabel>
False

$$$$
>  <residueString>
DPDTRIPVINLEDGTRLVGSDAPKNKDLVEWLKLHPTYTVDM [E20S]

>  <assignedLabel>
True

$$$$
>  <residueString>
DPDTRIPRINLEDGTRLVGEDAPKNKDLVEWLKLHPTYTVDM [V8R]

>  <assignedLabel>
False

$$$$
>  <residueString>
DPDTRIPVINLEDGTRLVFEDAPKNKDLVEWLKLHPTYTVDM [G19F]

>  <assignedLabel>
False

$$$$
>  <residueString>
DPDTRIPVINLEDGTRLVKEDAPKNKDLVEWLKLHPTYTVDM [G19K]

>  <assignedLabel>
True

$$$$
>  <residueString>
DPDTRIPVINLEDGTRLVSEDAPKNKDLVEWLKLHPTYTVDM [G19S]

>  <assignedLabel>
True

$$$$
>  <residueString>
GPDTRIPVINLEDGTRLVGEDAPKNKDLVEWLKLHPTYTVDM [D1G]

>  <assignedLabel>
False

$$$$
>  <residueString>
DPDTRIPVINLEDGTRPVGEDAPKNKDLVEWLKLHPTYTVDM [L17P]

>  <assignedLabel>
False

$$$$
>  <residueString>
DLDTRIPVINLEDGTRLVGEDAPKNKDLVEWLKLHPTYTVDM [P2L]

>  <assignedLabel>
True

$$$$
>  <residueString>
DPVTRIPVINLEDGTRLVGEDAPKNKDLVEWLKLHPTYTVDM [D3V]

>  <assignedLabel>
True

$$$$
>  <residueString>
DPDTRIPVINLEDGTRLVGEDAPKNKDLVEWLKLHRTYTVDM [P36R]

>  <assignedLabel>
True

$$$$
>  <residueString>
DPDTRIPYINLEDGTRLVGEDAPKNKDLVEWLKLHPTYTVDM [V8Y]

>  <assignedLabel>
False

$$$$
>  <residueString>
DPDTRIPVANLEDGTRLVGEDAPKNKDLVEWLKLHPTYTVDM [I9A]

>  <assignedLabel>
True

$$$$
>  <residueString>
DPDTRIPVINYEDGTRLVGEDAPKNKDLVEWLKLHPTYTVDM [L11Y]

>  <assignedLabel>
True

$$$$
>  <residueString>
DPDTRIPVIKLEDGTRLVGEDAPKNKDLVEWLKLHPTYTVDM [N10K]

>  <assignedLabel>
True

$$$$
>  <residueString>
DPDTRIFVINLEDGTRLVGEDAPKNKDLVEWLKLHPTYTVDM [P7F]

>  <assignedLabel>
False

$$$$
>  <residueString>
DPDTRIPVINLEDGTRLVGEDAPKPKDLVEWLKLHPTYTVDM [N25P]

>  <assignedLabel>
True

$$$$
>  <residueString>
DPDTRIPVINLEDGTRLVGEDAPKWKDLVEWLKLHPTYTVDM [N25W]

>  <assignedLabel>
True

$$$$
>  <residueString>
DPDTRIPVINLEDGTRLVGEDAWKNKDLVEWLKLHPTYTVDM [P23W]

>  <assignedLabel>
False

$$$$
>  <residueString>
DPTTRIPVINLEDGTRLVGEDAPKNKDLVEWLKLHPTYTVDM [D3T]

>  <assignedLabel>
True

$$$$
>  <residueString>
DPDTRIPVINLEDGTRVVGEDAPKNKDLVEWLKLHPTYTVDM [L17V]

>  <assignedLabel>
True

$$$$
>  <residueString>
DPDTRIPVINLEDGTRCVGEDAPKNKDLVEWLKLHPTYTVDM [L17C]

>  <assignedLabel>
True

$$$$
